- system.under.test: D-CGRP (biotinylated, all-D alpha-calcitonin gene-related peptide) (Rattus norvegicus)
- Sequence: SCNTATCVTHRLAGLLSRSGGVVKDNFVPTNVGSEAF
- assay.conditions: 2'-F pyrimidines
recorded.metric: Kd (nM)
Your answer should be a plain number; it is taken to be in nM.

- sequence.entry: "CGCAGCCUUCACUGCAGUGACGCACGUAUGAUAGUUUCCAUUUUGGACUCCUGCG [732_045]"
  recorded.metric: "Kd"
  unit.text: "nM"
  measured.number: 30000
- sequence.entry: "GGCAGCCUUCCUGCAGGACGCACGUAUGAUAGUUUGCUUUGCACUCCUGCC [732_104]"
  recorded.metric: "Kd"
  unit.text: "nM"
  measured.number: 40000
- sequence.entry: "CGCUCAGCCUUCACUGCAGUGACGCACGUAUGAUAGUUUCCAUUUUGGACUCCUGGGCG [732_096]"
  recorded.metric: "Kd"
  unit.text: "nM"
  measured.number: 30000

Kd lookup needed for GGCAGCCUUGCUGCAGCACGCACGUAUGAUAGUUUCCUUUGGACUCCUGCC [732_103] , thanks. 20000

Give the measured Kd of GGCUCAGCCUUCACUGCAGUGACGCACGUAUGAUAGUUUCCAUUUUGGACUCCUGGGCC [732_029] . 30000
